Field: melting point. Provide a value for each of the compounds that follow.

For the 6 compounds below, give their melting point values.
1. COCCNc1nc(NCc2ccccn2)c2c(-c3ccccc3)coc2n1
2. CN(C)c1nc(NCc2ccccn2)c2c(-c3ccccc3)coc2n1
3. Fc1ccc(-c2coc3ncnc(NCc4ccccn4)c23)cc1
4. Cc1cccc(CNc2nc(N(C)C)nc3occ(-c4ccccc4)c23)n1
5. COCCOc1nc(NCc2ccccn2)c2c(-c3ccccc3)coc2n1
6. Cc1oc2nc(N(C)C)nc(NCc3ccccn3)c2c1-c1ccc(F)cc1

96 to 98 °C
108 to 110 °C
162 to 164 °C
52 to 54 °C
97 to 99 °C
107 to 109 °C

----------
Molecular target: human Kv1.5 (Homo sapiens, UniProt P22460)
Construct: expressed in transfected cells
Sequence (P22460 whole entry): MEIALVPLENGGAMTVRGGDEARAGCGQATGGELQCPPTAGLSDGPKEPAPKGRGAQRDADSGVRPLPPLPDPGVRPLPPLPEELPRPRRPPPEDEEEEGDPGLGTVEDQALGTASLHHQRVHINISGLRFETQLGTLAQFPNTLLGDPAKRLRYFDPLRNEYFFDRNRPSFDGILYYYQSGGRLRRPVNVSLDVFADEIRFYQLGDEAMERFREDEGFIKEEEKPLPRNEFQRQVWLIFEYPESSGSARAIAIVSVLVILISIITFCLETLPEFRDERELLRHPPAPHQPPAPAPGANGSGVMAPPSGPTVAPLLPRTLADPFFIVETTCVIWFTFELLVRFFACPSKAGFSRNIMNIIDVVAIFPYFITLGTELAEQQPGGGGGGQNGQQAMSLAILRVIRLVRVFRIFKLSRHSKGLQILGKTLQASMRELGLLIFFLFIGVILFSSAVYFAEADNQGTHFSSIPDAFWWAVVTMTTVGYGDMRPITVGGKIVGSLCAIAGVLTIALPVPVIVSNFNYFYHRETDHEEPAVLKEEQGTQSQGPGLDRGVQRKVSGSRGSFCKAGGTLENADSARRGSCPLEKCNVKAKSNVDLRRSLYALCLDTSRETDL
Assay: Kv1.5 Autopatch Electrophysiology (whole cell patch-clamp)
Assay type: cell-based
Settings: compound at 1 μM; cells stably transfected with human Kv1.5; room temperature (22-24° C.); voltage step to 0 mV for 1000 ms from -80 mV, total charge
Experimental: Cells stably transfected with cDNA for human Kv1.5 (in pEF6::VA-His-TOPO) were grown in Dulbecco's Modified Eagle media (DMEM) alpha supplemented with 10% Fetal Calf Serum (FCS), 20 μl/ml penicillin (5000 U/ml) streptomycin (5000 μg/ml), 10 μl/ml [100×] glutamine, and blasticidin (7.5 μg/ml). The external bathing solution contained (in mM): 150 NaCl, 10 KCl, […], 3 MgCl2, 1 CaCl2, 10 HEPES, pH 7.4. […]
Please enter Y where % Inhibition @1 (μM) is greater than or equal to 80%, and N where it is lower.

[[record]]
molecule = "c1ccc(-c2coc3ncnc(NCc4ccccn4)c23)cc1 [Example 22]"
group_label = "N"

[[record]]
molecule = "c1ccc(CNc2ncnc3occ(-c4ccc5c(c4)OCO5)c23)nc1 [Example 25]"
group_label = "N"

[[record]]
molecule = "COc1ccc(-c2coc3ncnc(NCc4ccccn4)c23)cc1OC [Example 24]"
group_label = "N"


Does the molecule c1ccc(-c2coc3nc(N4CCOCC4)nc(NCc4ccccn4)c23)cc1 [Example 42] have recorded % Inhibition @1 (μM) that is 80% or more? Y

# check: % Inhibition @1 (μM) of Cc1oc2ncnc(NCc3ccccn3)c2c1-c1ccccc1 [Example 26] is greater than or equal to 80% Y

hey, is % Inhibition @1 (μM) for this one >= 80%? Clc1ccc(-c2coc3ncnc(NCc4ccccn4)c23)cc1 [Example 23] Y

----------
Target: human Kv1.5 (Homo sapiens)
Construct: expressed in transfected cells
Experiment: Kv1.5 Autopatch Electrophysiology (whole cell patch-clamp)
Assay type: cell-based
Details: compound at 1 μM; cells stably transfected with human Kv1.5; room temperature (22-24° C.); voltage step to 0 mV for 1000 ms from -80 mV, total charge
outcome.measure: inhibition at 1 µM
Answer with the value and then the unit.

Please review the following examples before continuing.
[[record]]
compound = "Cc1oc2nc(N(C)C)nc(NCc3ccccn3)c2c1-c1ccc(F)cc1 [Example 50]"
value_observed = "32%"

[[record]]
compound = "COCCOc1nc(NCc2ccccn2)c2c(-c3ccccc3)coc2n1 [Example 51]"
value_observed = "99%"

[[record]]
compound = "COCCNc1nc(NCc2ccccn2)c2c(-c3ccccc3)coc2n1 [Example 41]"
value_observed = "99%"

[[record]]
compound = "Cc1cccc(CNc2nc(N(C)C)nc3occ(-c4ccccc4)c23)n1 [Example 47]"
value_observed = "98%"


// input: 2 compounds below; output: inhibition at 1 µM for each
1. Cc1oc2nc(N(C)C)nc(NCc3ccccn3)c2c1-c1ccccc1 [Example 49]
2. CN(C)c1nc(NCc2ccco2)c2c(-c3ccccc3)coc2n1 [Example 48]

75%
98%

Look at each compound and report its inhibition at 1 µM.
1. CN(C)c1nc(NCc2ccccn2)c2c(-c3ccccc3)coc2n1 [Example 46]
2. OCC(CO)Nc1nc(NCc2ccccn2)c2c(-c3ccccc3)coc2n1 [Example 44]
3. Fc1ccc(-c2coc3ncnc(NCc4ccccn4)c23)cc1 [Example 21]
4. OCCN(CCO)c1nc(NCc2ccccn2)c2c(-c3ccc(F)cc3)coc2n1 [Example 45]
5. OCCN(CCO)c1nc(NCc2ccccn2)c2c(-c3ccccc3)coc2n1 [Example 43]

["99%", "75%", "39.8%", "42%", "82%"]

Origin of values: patent US7456187B2
